Molecular target: human P2X7 (Homo sapiens, UniProt Q99572)
Construct: 1321N1 cells stably expressing the full length human P2X7 gene (1321N1-hP2X7)
Test: P2X7 modulator pIC50 of Table 1 (assay not given; Intracellular Calcium Flux (FLIPR) Assay assumed)
pIC50: −log10 of the molar value.
ASSAY_ENDPOINT: pIC50

compound="COc1cc(C)c(NC(=O)C2=CNC(=O)N[C@H]2c2ccc(F)cc2)cc1OC [Compound 4]" numeric_result=7.22
compound="CN1C=C(C(=O)Nc2cc(-c3ccnn(C)c3=O)ccc2F)[C@H](c2ccc(F)cc2)NC1=O [Compound 72]" numeric_result=7.80

1: Cc1cc(F)c(OCCO)cc1NC(=O)C1=CN(C)C(=O)N[C@H]1c1ccc(F)cc1 [Compound 16]
2: COC[C@H](O)Cn1c(=O)cnn(-c2ccc(C)c(NC(=O)C3=CN(C)C(=O)N[C@H]3c3ccc(F)cc3)c2)c1=O [Compound 25]
Task item: Which has the higher pIC50, 1 or 2 ? I would appreciate it if you answered with the label of your choice.
Reply: 1

----------
Target: human P2X7 (Homo sapiens, UniProt Q99572)
Construct: 1321N1 cells stably expressing the full length human P2X7 gene (1321N1-hP2X7)
Sequence (Q99572 1-595): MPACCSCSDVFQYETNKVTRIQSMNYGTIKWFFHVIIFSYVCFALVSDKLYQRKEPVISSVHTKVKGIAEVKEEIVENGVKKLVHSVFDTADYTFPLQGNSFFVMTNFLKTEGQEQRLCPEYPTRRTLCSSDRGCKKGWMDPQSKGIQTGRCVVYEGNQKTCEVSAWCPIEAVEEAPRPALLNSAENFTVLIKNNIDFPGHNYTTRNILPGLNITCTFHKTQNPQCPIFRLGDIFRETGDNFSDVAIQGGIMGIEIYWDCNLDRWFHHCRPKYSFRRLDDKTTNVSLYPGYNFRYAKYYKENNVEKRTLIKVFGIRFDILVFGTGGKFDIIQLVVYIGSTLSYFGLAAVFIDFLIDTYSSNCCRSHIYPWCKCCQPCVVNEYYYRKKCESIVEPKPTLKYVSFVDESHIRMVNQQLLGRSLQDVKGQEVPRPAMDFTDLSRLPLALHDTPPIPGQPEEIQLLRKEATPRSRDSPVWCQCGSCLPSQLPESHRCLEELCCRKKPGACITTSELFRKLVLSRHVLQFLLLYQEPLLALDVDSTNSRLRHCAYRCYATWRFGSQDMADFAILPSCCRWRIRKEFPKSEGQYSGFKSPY
Experiment: P2X7 modulator pIC50 of Table 1 (assay not given; Intracellular Calcium Flux (FLIPR) Assay assumed)
ASSAY_ENDPOINT: IC50 (nM)

compound="Cc1cc(Cl)c(OCCO)cc1NC(=O)C1=CN(C)C(=O)N[C@H]1c1cccc(F)c1 [Compound 30]" test_system="human P2X7 (Homo sapiens, UniProt Q99572)" assay_endpoint=IC50 numeric_result=20.2
compound="Cc1cnn(-c2cc(NC(=O)C3=CN(C)C(=O)N[C@H]3c3ccc(F)cc3)c(C)cc2F)c(=O)c1 [Compound 73]" test_system="human P2X7 (Homo sapiens, UniProt Q99572)" assay_endpoint=IC50 numeric_result=56.9
compound="Cc1ccc(-n2ncccc2=O)cc1NC(=O)C1=CN(C)C(=O)N[C@H]1c1cccc(F)c1 [Compound 49]" test_system="human P2X7 (Homo sapiens, UniProt Q99572)" assay_endpoint=IC50 numeric_result=105
compound="CCn1c(=O)cnn(-c2ccc(C)c(NC(=O)C3=CN(C)C(=O)N[C@H]3c3ccc(F)cc3)c2)c1=O [Compound 64]" test_system="human P2X7 (Homo sapiens, UniProt Q99572)" assay_endpoint=IC50 numeric_result=16.6
compound="COC[C@@H](O)Cn1nc(-c2ccc(C)c(NC(=O)C3=CN(C)C(=O)N[C@H]3c3ccc(F)cc3)c2)cc1C [Compound 36]" test_system="human P2X7 (Homo sapiens, UniProt Q99572)" assay_endpoint=IC50 numeric_result=140

P: COCCN1C=C(C(=O)Nc2cc(OCCO)c(Cl)cc2C)[C@H](c2ccc(F)cc2)NC1=O [Compound 39]
Q: Cc1cc(-c2ccc(C)c(NC(=O)C3=CN(C)C(=O)N[C@H]3c3cccc(F)c3)c2)n[nH]1 [Compound 33]
R: Cc1ccc(-n2c(=O)cc[nH]c2=O)cc1NC(=O)C1=CN(C)C(=O)N[C@H]1c1ccc(F)cc1 [Compound 56]
S: Cc1ccc(-n2ccccc2=O)cc1NC(=O)C1=CN(C)C(=O)N[C@H]1c1ccc(F)cc1 [Compound 54]
T: COc1ccc(-c2ccc(C)c(NC(=O)C3=CN(C)C(=O)N[C@H]3c3ccc(F)cc3)c2)nn1 [Compound 55]
Task item: Please list these compounds in decreasing order of IC50. Present the labels in the sequence the task asks for.
Reply: R, Q, P, S, T
(R: 3160 nM, Q: 107 nM, P: 43 nM, S: 21.6 nM, T: 11 nM)

a: COC[C@H](O)Cn1nc(-c2ccc(C)c(NC(=O)C3=CN(C)C(=O)N[C@H]3c3ccc(F)cc3)c2)cc1C [Compound 24]
b: Cc1ccc(-c2cncc(=O)[nH]2)cc1NC(=O)C1=CN(C)C(=O)N[C@H]1c1ccc(F)cc1 [Compound 28]
Task item: # query: argmin of IC50 over a and b Provide the label of your selected option as the answer.
Reply: a

I: Cc1ccc(=O)n(-c2ccc(C)c(NC(=O)C3=CN(C)C(=O)N[C@H]3c3ccc(F)cc3)c2)c1 [Compound 71]
II: Cc1ccc(-c2ccnn(C)c2=O)cc1NC(=O)C1=CN(C)C(=O)N[C@H]1c1ccccc1 [Compound 57]
Task item: Between I and II , which one shows the larger IC50 value? Your answer should be the label attached to the chosen record.
Reply: II
(II: 3470 nM, I: 43.2 nM)

P: Cc1cc(-c2ccc(C)c(NC(=O)C3=CN(C)C(=O)NC3c3cccc(F)c3)c2)n[nH]1 (stereo not drawn) [Compound 14]
Q: Cc1cc(Cl)c(OCCO)cc1NC(=O)C1=CN(C)C(=O)N[C@H]1c1ccc(F)cc1 [Compound 8]
R: Cc1cnn(-c2ccc(C)c(NC(=O)C3=CN(C)C(=O)N[C@H]3c3ccc(F)cc3)c2)c1 [Compound 15]
S: Cc1ccc2c(NC(=O)C3=CN(C)C(=O)N[C@H]3c3ccc(F)cc3)c(C)ccc2n1 [Compound 21]
T: Cc1cc2cnn(CC(=O)N(C)C)c2cc1NC(=O)C1=CN(C)C(=O)N[C@H]1c1ccc(F)cc1 [Compound 58]
Task item: Could you please order the items by IC50, going from the lowest number to the highest? As an answer, provide the labels arranged in the order called for.
Reply: R, Q, T, P, S
(R: 14.1 nM, Q: 22.9 nM, T: 40.3 nM, P: 57.9 nM, S: 88.1 nM)

meta.source: patent US8435990B2
